System: Streptococcus pneumoniae ATCC 49619
Experiment: Broth microdilution MIC, S. pneumoniae ATCC 49619
Type: cell-based
Conditions: ATCC49619, broth microdilution, 37° C., 20 hours, read-out: MIC S. pneumoniae ATCC 49619
quantity-kind: MIC (µg/mL)

// known answers, use as guide
>  <molecule>
Cc1ccnc(C(=O)N2CCC(n3ncc4nc(NCc5ccc(Cl)c(Cl)c5)[nH]c(=O)c43)CC2)c1.Cl [Compound 264]

>  <MIC [µg/mL]>
4

$$$$
>  <molecule>
NC(=O)COCCn1ncc2nc(NCc3ccc(Cl)c(Cl)c3)[nH]c(=O)c21 [Compound 284]

>  <MIC [µg/mL]>
8

$$$$

(I) O=c1[nH]c(NCc2ccc(Cl)c(Cl)c2)nc2cnn(CCCO)c12 [Compound 123]
(II) COCCn1nc(F)c2nc(NCc3ccc(Cl)c(Cl)c3)[nH]c(=O)c21 [Compound 305]
Request: Consider I and II . Which of these has its MIC at a higher number? Reply with the label of the item you choose.
Response: II
